test.protocol: Selectivity index, ratio of CC50 for cytotoxicity against human THP-1 cells assessed as reduction in cell viability to IC50 for antileishmanial activity against […] stage of Leishmania infantum MHOM/BR/1974/PP75 infected in human THP-1 cells assessed as parasite growth inhibition
Type: toxicity, cell-based
condition.parameters: read-out: Ratio CC50/IC50
The following molecules are shown together with reported selectivity ratio values.
parameter.measured: selectivity ratio

O=C(c1ccc(NC2CCCC2)nc1)N1CCN(c2cnccn2)CC1
3
O=C(N1CCN(c2cnccn2)CC1)n1ccnc1
438
O=C(c1ccc([N+](=O)[O-])cc1)N1CCN(c2cnccn2)CC1
13
O=C(c1ccc(N2CCCC2)nc1)N1CCN(c2cnccn2)CC1
53
O=C(c1ccc(O)cc1O)N1CCN(c2cnccn2)CC1
20
O=C(c1ccccc1)N1CCN(c2cnccn2)CC1
11
